Values from ChEMBL document CHEMBL5584263

Tested on: BMMC
Test: Inhibition of osteoclastogenesis in mouse BMMC at 0.5 uM by TRAP staining based assay
Format: functional
Quantity kind: inhibition at 0.5 µM (%)
Numbers only, in %.

CC(C)(C)c1ccc(S(=O)(=O)N2CCN(Cc3ccc(C(=O)NC4CC4)cc3)CC2)cc1 : 23.6
COc1ccc(S(=O)(=O)N2CCN(Cc3ccc(C(=O)NC4CC4)cc3)CC2)cc1 : -9.9

// for each molecule in input: emit inhibition at 0.5 µM
1. CC(=O)c1ccc(S(=O)(=O)N2CCN(Cc3ccc(C(=O)NC4CC4)cc3)CC2)cc1
2. COc1cccc(S(=O)(=O)N2CCN(Cc3ccc(C(=O)NC4CC4)cc3)CC2)c1

17.6
-22.8

// for each molecule in input: emit inhibition at 0.5 µM
1. O=C(NC1CC1)c1ccc(CN2CCN(S(=O)(=O)c3ccc(-c4ccccc4)cc3)CC2)cc1
2. O=C(NC1CC1)c1ccc(CN2CCN(S(=O)(=O)c3ccc([N+](=O)[O-])cc3)CC2)cc1
3. O=C(NC1CC1)c1ccc(CN2CCN(S(=O)(=O)c3ccc(C(F)(F)F)cc3)CC2)cc1
4. O=C(NC1CC1)c1ccc(CN2CCN(S(=O)(=O)c3cccc(Cl)c3)CC2)cc1
5. CCCCCCCCS(=O)(=O)N1CCN(Cc2ccc(C(=O)NC3CC3)cc2)CC1

[9.56, 48.9, 17.7, -49.2, 23.9]

---

Give measured logP for each item. Keep answers brief.
Assay: Partition coefficient, logP of compound
Type: physicochemical
Conditions: octanol/water
Answers are plain numbers.

Sample records with logP:
O=C(NC1CC1)c1ccc(CN2CCN(S(=O)(=O)c3ccc(-c4ccccc4)cc3)CC2)cc1 : 4.1
O=C(NC1CC1)c1ccc(CN2CCN(S(=O)(=O)c3ccc([N+](=O)[O-])cc3)CC2)cc1 : 2.6
CC(=O)c1ccc(S(=O)(=O)N2CCN(Cc3ccc(C(=O)NC4CC4)cc3)CC2)cc1 : 2.3
O=C(NC1CC1)c1ccc(CN2CCN(S(=O)(=O)c3ccc(C(F)(F)F)cc3)CC2)cc1 : 3.5

// for each compound in input: emit logP
1. COc1ccc(S(=O)(=O)N2CCN(Cc3ccc(C(=O)NC4CC4)cc3)CC2)cc1
2. COc1cccc(S(=O)(=O)N2CCN(Cc3ccc(C(=O)NC4CC4)cc3)CC2)c1
3. CC(C)(C)c1ccc(S(=O)(=O)N2CCN(Cc3ccc(C(=O)NC4CC4)cc3)CC2)cc1

1: 2.6; 2: 2.7; 3: 4.1

// for each compound in input: emit logP
1. CCCCCCCCS(=O)(=O)N1CCN(Cc2ccc(C(=O)NC3CC3)cc2)CC1
2. O=C(NC1CC1)c1ccc(CN2CCN(S(=O)(=O)c3cccc(Cl)c3)CC2)cc1

1: 5.7; 2: 3.3

---

Tested on: BMMC
Test: Inhibition of osteoclastogenesis in mouse BMMC by TRAP staining based assay
Assay type: functional, cell-based
Give measured pIC50 for each item. Keep answers brief.
One number for each entry, as −log10 of the molar value.

Sample records with pIC50:
CC(=O)c1ccc(S(=O)(=O)N2CCN(Cc3ccc(C(=O)NC4CC4)cc3)CC2)cc1 : 5.14
O=C(NC1CC1)c1ccc(CN2CCN(S(=O)(=O)c3ccc(C(F)(F)F)cc3)CC2)cc1 : 6.19
CCCCCCCCS(=O)(=O)N1CCN(Cc2ccc(C(=O)NC3CC3)cc2)CC1 : 5.94
O=C(NC1CC1)c1ccc(CN2CCN(S(=O)(=O)c3cccc(Cl)c3)CC2)cc1 : 5.52

// for each compound in input: emit pIC50
1. COc1ccc(S(=O)(=O)N2CCN(Cc3ccc(C(=O)NC4CC4)cc3)CC2)cc1
2. CC(C)(C)c1ccc(S(=O)(=O)N2CCN(Cc3ccc(C(=O)NC4CC4)cc3)CC2)cc1
3. O=C(NC1CC1)c1ccc(CN2CCN(S(=O)(=O)c3ccc(-c4ccccc4)cc3)CC2)cc1
4. O=C(NC1CC1)c1ccc(CN2CCN(S(=O)(=O)c3ccc([N+](=O)[O-])cc3)CC2)cc1

1: 3.66; 2: 6.26; 3: 6.12; 4: 5.77
